Tested on: peripheral blood mononuclear cells (PBMCs)
Experiment: Cytotoxicity in PBMCs (MTS assay)
Type: cell-based, human
Conditions: read-out: TC50 (μM): 50% cytoxicity (MTS), 7 days
Experimental: The activity of the certain compounds of the invention was evaluated in peripheral blood mononuclear cells (PBMCs) infected with the low passage, clinical isolate HIV-1ROJO to generate a measure of the efficacy of these compounds in acutely infected cells. […] Viral replication was measured by the level of reverse transcriptase activity in the supernatant and cytotoxicity was measured with the MTS assay.
value.type: CC50

Query string: Please provide the recorded CC50 for Cc1cn([C@H]2C[C@H](N=[N+]=[N-])[C@@H](CO)O2)c(=O)[nH]c1=O [AZT, reference compound] , tested on peripheral blood mononuclear cells (PBMCs).
Result string: > 1 µM
